Test system: PC3 cells
protocol description: Tumor sphere assay, PC3 cells
Type: cell-based, human
measurement conditions: Homo sapiens, PC-3; PC3 cells; read-out: Inhibition of sphere formation ability normalized to control groups, IC50
Reported IC50 values for the following compounds.
Write the numeric value and append its unit.

Nc1ccc(CCN2C(=O)c3c(F)c(F)c(F)c(F)c3C2=O)cc1 [Compound 1]    130 nM

Lab note: O=C1C(=Cc2cccnc2)C(=O)c2ccccc21 [Compound 2, reference compound] gave IC50 of 1050 nM

---

Reported IC50 values for the following compounds.
experimental target: PRC1 (Homo sapiens)
Construct: PC3 cells were exposed to drugs for the indicated hours; endogenous in cells; host or cells: PC3 cells
Sequence (Q99496 2-336 limits assumed): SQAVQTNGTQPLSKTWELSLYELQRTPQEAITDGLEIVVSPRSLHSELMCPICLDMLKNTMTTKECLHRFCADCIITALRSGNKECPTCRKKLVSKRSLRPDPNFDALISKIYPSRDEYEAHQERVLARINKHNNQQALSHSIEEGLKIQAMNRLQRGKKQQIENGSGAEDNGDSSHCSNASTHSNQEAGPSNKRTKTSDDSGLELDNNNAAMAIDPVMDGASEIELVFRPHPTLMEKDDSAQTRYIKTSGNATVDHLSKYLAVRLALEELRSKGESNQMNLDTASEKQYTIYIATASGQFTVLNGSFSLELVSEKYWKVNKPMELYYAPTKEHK
protocol description: Inhibition of H2Aub (monoubiquitylation of histone H2A) in PC3 cells
Assay type: cell-based
measurement conditions: PC3 cells; read-out: Inhibition of H2Aub normalized to control groups, IC50
Write the numeric value and append its unit.

O=C1C(=Cc2cccnc2)C(=O)c2ccccc21 [Compound 2, reference compound]    3520 nM

Lab note: Nc1ccc(CCN2C(=O)c3c(F)c(F)c(F)c(F)c3C2=O)cc1 gave IC50 of 470 nM
